- PROTOCOL_DESCRIPTION: solubility in water and organic solvents
- Format: physicochemical
- TEST_CONTEXT: 25°
Parameter solubility in water: see the listing below.

Any idea what solubility in water was measured for CN(C/C=C/C#CC(C)(C)C)Cc1cccc2ccccc12 [Example 4, Terbinafine D-(+)-hydrogen malate] ?
~7 mg/mL

Would you mind doing CN(C/C=C/C#CC(C)(C)C)Cc1cccc2ccccc12 [L-(−)-hydrogen malate, terbinafine L-(−)-hydrogen malate] as well?
12 to 15 mg/mL

Would you mind doing CN(C/C=C/C#CC(C)(C)C)Cc1cccc2ccccc12 [Example 1] as well?
~12 mg/mL

Would you mind doing CN(C/C=C/C#CC(C)(C)C)Cc1cccc2ccccc12 [Example 2] as well?
15 mg/mL
